- Procedure text: Binding affinity at human cPLA2-alpha by isothermal calorimetry
Readout kind: pKd
Please keep in mind that pKd is minus log10 of the molar concentration; only the number is needed.

Inquiry: // lookup pKd for "O=C(O)c1ccc(CCCc2c(CCNS(=O)(=O)c3c(F)cccc3C(F)(F)F)n(C(c3ccccc3)c3ccccc3)c3ccc(Cl)cc23)cc1"
Reply text: 7.10

###

- Procedure text: Oral bioavailability in Sprague-Dawley rat at 5 mg/kg administered through MC/TW formulation
- Assay type: ADME, organism-based
- Condition set: in vivo
Readout kind: bioavailability

Inquiry: // lookup bioavailability for "O=C(O)c1ccc(CCCc2c(CCNS(=O)(=O)Cc3ccccc3)n(C(c3ccccc3)c3ccccc3)c3ccc(Cl)cc23)cc1"
Reply text: 3.8%

###

- Procedure text: Clearance in Sprague-Dawley rat at 2 mg/kg, iv
- Assay type: ADME, organism-based
- Parameters: dose 2 mg/kg, route intravenous
- Condition set: in vivo
Condition met if clearance is below 10 mL/min/kg. Condition not met if not; exact matches included in Condition not met.

Observe how each entry below is paired with its result.
                         structure_notation     classification
0  O=C(O)c1ccc(CCCc2c(CCNS(=O)(=O)Cc3ccccc3)n(C(c3ccccc3)c3ccccc3)c3ccc(Cl)cc23)cc1  Condition not met
1  O=C(O)c1ccc(OCCc2c(CCNS(=O)(=O)c3ccccc3-c3ccccc3)n(C(c3ccccc3)c3ccccc3)c3ccc(Cl)cc23)cc1      Condition met
2  Cc1ccccc1S(=O)(=O)NCCc1c(CCOc2ccc(C(=O)O)cc2)c2cc(Cl)ccc2n1C(c1ccccc1)c1ccccc1  Condition not met

Inquiry: Lab note: confirm whether the reported clearance for this compound is below 10 mL/min/kg, equality not counting. compound: "COc1ccccc1S(=O)(=O)NCCc1c(CCOc2ccc(C(=O)O)cc2)c2cc(Cl)ccc2n1C(c1ccccc1)c1ccccc1"
Reply text: Condition not met

Inquiry: Lab note: confirm whether the reported clearance for this compound is below 10 mL/min/kg, equality not counting. compound: "O=C(O)c1ccc(CCCc2c(CCNS(=O)(=O)c3ccccc3Cl)n(C(c3ccccc3)c3ccccc3)c3ccc(Cl)cc23)cc1"
Reply text: Condition met

Inquiry: Lab note: confirm whether the reported clearance for this compound is below 10 mL/min/kg, equality not counting. compound: "O=C(O)c1ccc(CCCc2c(CCNS(=O)(=O)c3ccccc3F)n(C(c3ccccc3)c3ccccc3)c3ccc(Cl)cc23)cc1"
Reply text: Condition met

Inquiry: Lab note: confirm whether the reported clearance for this compound is below 10 mL/min/kg, equality not counting. compound: "O=C(O)c1ccc(CCCc2c(CCNS(=O)(=O)c3c(Cl)cccc3Cl)n(C(c3ccccc3)c3ccccc3)c3ccc(Cl)cc23)cc1"
Reply text: Condition met

Inquiry: Lab note: confirm whether the reported clearance for this compound is below 10 mL/min/kg, equality not counting. compound: "O=C(O)c1ccc(OCCc2c(CCNS(=O)(=O)c3ccccc3OC(F)(F)F)n(C(c3ccccc3)c3ccccc3)c3ccc(Cl)cc23)cc1"
Reply text: Condition not met

Inquiry: Lab note: confirm whether the reported clearance for this compound is below 10 mL/min/kg, equality not counting. compound: "O=C(O)c1ccc(OCCc2c(CCNS(=O)(=O)c3ccccc3)n(C(c3ccccc3)c3ccccc3)c3ccc(Cl)cc23)cc1"
Reply text: Condition not met

###

Parameter: bioavailability. Scope: all listed entries.
- Procedure text: Oral bioavailability in Sprague-Dawley rat at 25 mg/kg administered through MC/TW formulation
- Format: ADME, organism-based
- Condition set: in vivo
Just the number please, in %, no unit attached.

In [3]: df
Out[3]:
                                   molecule  reported_value
0  O=C(O)c1ccc(CCCc2c(CCNS(=O)(=O)c3ccccc3OC(F)(F)F)n(C(c3ccccc3)c3ccccc3)c3ccc(Cl)cc23)cc1             4.6
1  O=C(O)c1ccc(CCCc2c(CCNS(=O)(=O)c3ccccc3Cl)n(C(c3ccccc3)c3ccccc3)c3ccc(Cl)cc23)cc1            13.7

Inquiry: // lookup bioavailability for "O=C(O)c1ccc(OCCc2c(CCNS(=O)(=O)c3ccccc3OC(F)(F)F)n(C(c3ccccc3)c3ccccc3)c3ccc(Cl)cc23)cc1"
Reply text: 15.4

Inquiry: // lookup bioavailability for "O=C(O)c1ccc(CCCc2c(CCNS(=O)(=O)c3c(F)cccc3C(F)(F)F)n(C(c3ccccc3)c3ccccc3)c3ccc(Cl)cc23)cc1"
Reply text: 13

Inquiry: // lookup bioavailability for "Cc1cccc(C)c1CS(=O)(=O)NCCc1c(CCCc2ccc(C(=O)O)cc2)c2cc(Cl)ccc2n1C(c1ccccc1)c1ccccc1"
Reply text: 1

Inquiry: // lookup bioavailability for "O=C(O)c1ccc(OCCc2c(CCNS(=O)(=O)c3c(Cl)cccc3Cl)n(C(c3ccccc3)c3ccccc3)c3ccc(Cl)cc23)cc1"
Reply text: 2.9

Inquiry: // lookup bioavailability for "O=C(O)c1ccc(OCCc2c(CCNS(=O)(=O)c3ccccc3F)n(C(c3ccccc3)c3ccccc3)c3ccc(Cl)cc23)cc1"
Reply text: 6

Inquiry: // lookup bioavailability for O=C(O)c1ccc(OCCc2c(CCNS(=O)(=O)Cc3ccc(Cl)c(Cl)c3)n(C(c3ccccc3)c3ccccc3)c3ccc(Cl)cc23)cc1 [ECOPLADIB]
Reply text: 6

Inquiry: // lookup bioavailability for "O=C(O)c1ccc(CCCc2c(CCNS(=O)(=O)c3ccccc3-c3ccccc3)n(C(c3ccccc3)c3ccccc3)c3ccc(Cl)cc23)cc1"
Reply text: 0.4

Inquiry: // lookup bioavailability for "Cc1cccc(C)c1S(=O)(=O)NCCc1c(CCOc2ccc(C(=O)O)cc2)c2cc(Cl)ccc2n1C(c1ccccc1)c1ccccc1"
Reply text: 6

Inquiry: // lookup bioavailability for "O=C(O)c1ccc(OCCc2c(CCNS(=O)(=O)c3ccccc3Cl)n(C(c3ccccc3)c3ccccc3)c3ccc(Cl)cc23)cc1"
Reply text: 39

Inquiry: // lookup bioavailability for "Cc1cccc(C)c1S(=O)(=O)NCCc1c(CCCc2ccc(C(=O)O)cc2)c2cc(Cl)ccc2n1C(c1ccccc1)c1ccccc1"
Reply text: 1.3

Inquiry: // lookup bioavailability for "COc1ccccc1S(=O)(=O)NCCc1c(CCCc2ccc(C(=O)O)cc2)c2cc(Cl)ccc2n1C(c1ccccc1)c1ccccc1"
Reply text: 7.8

Inquiry: // lookup bioavailability for "O=C(O)c1ccc(CCCc2c(CCNS(=O)(=O)c3ccccc3Br)n(C(c3ccccc3)c3ccccc3)c3ccc(Cl)cc23)cc1"
Reply text: 1.9

Inquiry: // lookup bioavailability for "O=C(O)c1ccc(CCCc2c(CCNS(=O)(=O)c3ccccc3F)n(C(c3ccccc3)c3ccccc3)c3ccc(Cl)cc23)cc1"
Reply text: 4

###

- Procedure text: Inhibition of cPLA2-alpha in Sprague-Dawley rat whole blood assay in presence of A23187
- Type: tissue-based
TRUE if IC50 is below 60 nM. FALSE if not; exact matches included in FALSE.

Observe how each entry below is paired with its result.
>>> print(df.to_string())
                         structure_notation  classification
0  O=C(O)c1ccc(CCCc2c(CCNS(=O)(=O)c3ccccc3F)n(C(c3ccccc3)c3ccccc3)c3ccc(Cl)cc23)cc1           FALSE
1  Cc1cccc(C)c1CS(=O)(=O)NCCc1c(CCCc2ccc(C(=O)O)cc2)c2cc(Cl)ccc2n1C(c1ccccc1)c1ccccc1            TRUE
2  O=C(O)c1ccc(OCCc2c(CCNS(=O)(=O)Cc3ccc(Cl)c(Cl)c3)n(C(c3ccccc3)c3ccccc3)c3ccc(Cl)cc23)cc1           FALSE

Inquiry: Lab note: confirm whether the reported IC50 for this molecule is below 60 nM, equality not counting. molecule: "O=C(O)c1ccc(CCCc2c(CCNS(=O)(=O)c3c(Cl)cccc3Cl)n(C(c3ccccc3)c3ccccc3)c3ccc(Cl)cc23)cc1"
Reply text: FALSE

###

- Procedure text: Inhibition of cPLA2-alpha in Sprague-Dawley rat whole blood assay in presence of A23187
- Type: tissue-based
Parameter: IC50. Scope: all listed entries.

Please review the entries below; each comes with its answer.
>>> print(df.to_string())
                         structure_notation  readout_kind  reported_value
0  O=C(O)c1ccc(OCCc2c(CCNS(=O)(=O)c3c(F)cccc3C(F)(F)F)n(C(c3ccccc3)c3ccccc3)c3ccc(Cl)cc23)cc1          IC50          150 nM
1  O=C(O)c1ccc(OCCc2c(CCNS(=O)(=O)c3ccccc3-c3ccccc3)n(C(c3ccccc3)c3ccccc3)c3ccc(Cl)cc23)cc1          IC50          150 nM
2  O=C(O)c1ccc(OCCc2c(CCNS(=O)(=O)c3cccc(-c4ccccc4)c3)n(C(c3ccccc3)c3ccccc3)c3ccc(Cl)cc23)cc1          IC50          600 nM
3  O=C(O)c1ccc(OCCc2c(CCNS(=O)(=O)c3ccccc3F)n(C(c3ccccc3)c3ccccc3)c3ccc(Cl)cc23)cc1          IC50          150 nM
4  Cc1cccc(C)c1S(=O)(=O)NCCc1c(CCOc2ccc(C(=O)O)cc2)c2cc(Cl)ccc2n1C(c1ccccc1)c1ccccc1          IC50           95 nM

Inquiry: // lookup IC50 for "O=C(O)c1ccc(CCCc2c(CCNS(=O)(=O)Cc3ccccc3)n(C(c3ccccc3)c3ccccc3)c3ccc(Cl)cc23)cc1"
Reply text: 80 nM

Inquiry: // lookup IC50 for "Cc1cccc(C)c1S(=O)(=O)NCCc1c(CCCc2ccc(C(=O)O)cc2)c2cc(Cl)ccc2n1C(c1ccccc1)c1ccccc1"
Reply text: 75 nM

Inquiry: // lookup IC50 for "O=C(O)c1ccc(OCCc2c(CCNS(=O)(=O)c3c(Cl)cccc3Cl)n(C(c3ccccc3)c3ccccc3)c3ccc(Cl)cc23)cc1"
Reply text: 210 nM

Inquiry: // lookup IC50 for "O=C(O)c1ccc(CCCc2c(CCNS(=O)(=O)c3ccccc3OC(F)(F)F)n(C(c3ccccc3)c3ccccc3)c3ccc(Cl)cc23)cc1"
Reply text: 200 nM
